- assay-system: IDO enzyme (Homo sapiens, UniProt P14902)
- Construct: made in house; host or cells: E. coli BL21 (pET28a-IDO plasmid)
- Sequence (P14902 whole entry): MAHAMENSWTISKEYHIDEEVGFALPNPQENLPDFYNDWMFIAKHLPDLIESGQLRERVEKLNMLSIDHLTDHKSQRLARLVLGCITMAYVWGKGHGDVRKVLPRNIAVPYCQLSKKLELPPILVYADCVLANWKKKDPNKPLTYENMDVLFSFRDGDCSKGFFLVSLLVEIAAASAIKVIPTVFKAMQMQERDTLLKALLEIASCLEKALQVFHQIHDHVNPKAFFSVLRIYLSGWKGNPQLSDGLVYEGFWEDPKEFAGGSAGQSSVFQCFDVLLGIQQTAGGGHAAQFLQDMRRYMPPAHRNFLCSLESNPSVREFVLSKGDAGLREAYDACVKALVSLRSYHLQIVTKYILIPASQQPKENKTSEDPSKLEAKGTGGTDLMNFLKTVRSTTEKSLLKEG
- experimental-protocol: IDO enzyme inhibitory activity test
- Type: biochemical
- test-conditions: recombinant IDO, D-Trp substrate, reading at 321 nm for 40 min
pIC50: −log10 of the molar value.
outcome-measure: pIC50

> print(dat)
                                   compound  assay.value
1  O=C(Nc1ccc(C(F)(F)F)cc1)C1CC12CCC(c1ccnc3ccc(F)cc13)CC2 (racemic)         6.33
2  O=C(NC1CC2(CCC(c3ccnc4ccc(F)cc34)CC2)C1)c1ccc(Cl)cc1 (racemic)         6.32
3  O=C(Nc1cccc(Br)c1)C1CCC12CCC(c1ccnc3ccc(F)cc13)CC2 (racemic) [Example 14B]         5.15
4  O=C(Nc1ccc(Cl)cc1)C1CC12CCC(c1ccnc3ccc(F)cc13)CC2 (racemic)         6.80
5  O=C(Nc1ccc(Br)cc1)C1CC2(CCC(c3ccnc4ccc(F)cc34)CC2)C1 (racemic)         6.70
6  O=C(NC1CC2(CCC(c3ccnc4ccc(F)cc34)CC2)C1)c1ccc(F)cc1 (racemic)         6.32
7  O=C(Nc1ccccc1)C1CC12CCC(c1ccnc3ccc(F)cc13)CC2 (racemic)         6.00
8  O=C(Nc1cccc(Br)c1)C1CCC12CCC(c1ccnc3ccc(F)cc13)CC2 (racemic) [Example 14A]         5.12
